The reported numbers originate from PubChem BioAssay (NCI).

Test system: SF-539 CNS
experiment_description: NCI tumour cell line growth inhibition, 48 h; in the data active = GI50 below about 0.43 µM; inactive = the rest
Classes used: yes for active, no for inactive

compound	assay_target	class
CCCCCCCCCNCCCCCCCCC	SF-539 CNS	no
COc1ccc(C2=NN(C(=O)COc3ccc(Cl)cc3)C(O)(c3cc(F)c(Cl)cc3Cl)C2)cc1OC (stereo unspecified)	SF-539 CNS	no
C=C1C(=O)O[C@@H]2C1C[C@@H](O)/C(C)=C/C/C=C(\C)CCC[C@H](C)[C@H]2OC(C)=O (stereo partly specified)	SF-539 CNS	no
N=C1c2nc3n(c2C(=O)c2nc4n(c21)CCCC4)CCCC3	SF-539 CNS	no
CC(=O)Nc1nc(SCc2ccccc2)c2ncn(C(C)=O)c2n1	SF-539 CNS	no
CCN(CC)CCOc1ccc(Nc2ncc3cc(-c4ccc(O)cc4)c(=O)n(C)c3n2)cc1	SF-539 CNS	no
CC(C)(C)C(=O)Nc1ccccc1I(=O)=O	SF-539 CNS	no
COc1ccc2c(c1)nc(N)c1c3cc(OC)c(OC)cc3cn21	SF-539 CNS	yes
O=[N+]([O-])c1ccc(-c2nc(N(CCO)CCO)c3ccccc3n2)o1	SF-539 CNS	yes
COc1ccc2nc(-c3ccccc3)cc(Nc3ccc(C(C)=O)cc3)c2c1	SF-539 CNS	no
COc1cc(Cl)cc(-c2nn(C(=O)NCCN3CCN(C)CC3)cc2-c2ccncc2)c1	SF-539 CNS	no
CCCCCNC(=O)[C@@H]1CCCN2C(=O)CC[C@H](NC(=O)[C@H](Cc3ccc(OP(=O)(O)O)cc3)NC(C)=O)C(=O)N12	SF-539 CNS	no
O=C1CCCCCCCC/C=C/CCC(c2ccco2)O1 (stereo unspecified)	SF-539 CNS	no
CC1(C)OC[C@@H]([C@@]2(CO[Si](C)(C)C(C)(C)C)CC=CC(=O)O2)O1	SF-539 CNS	no
COC1/C=C\C=C(/C)C(=O)Nc2cc3nc4ccc(Br)cc4oc-3c(c2=O)CC(C)CC(OC)C(O)C(C)/C=C(\C)C1OC(N)=O (stereo unspecified)	SF-539 CNS	yes
COc1cc(NC(=O)c2cc(OC)c3ccn(C)c3c2)cc2c1C[C@]1(C)CC[C@@H](O)C(C)(C)[C@H]1O2	SF-539 CNS	no

* * *

Entries and their TGI
Test system: OVCAR-3 ovarian
experiment_description: NCI tumour cell line growth inhibition, 48 h

compound	TGI
CC(=O)c1cc2c(s1)C(=O)c1scc(C(C)=O)c1C2=O	0.271 µM
Fc1ccc(Oc2nccc(-c3c(-c4ccc(F)cc4)ncn3C3CCNCC3)n2)cc1	> 25 µM
C1CNCCNCCNCCN1	> 100 µM
Nc1nc2cc(CNc3ccc(C(=O)O)cc3)ccc2nc1-c1ccccc1	> 100 µM
CCOC(O)C(F)(F)F (stereo not drawn)	> 100 µM
Cc1c(NC(=S)N/N=C\C(=N/NC(=S)Nc2c(C)n(C)n(-c3ccccc3)c2=O)c2ccccc2)c(=O)n(-c2ccccc2)n1C	> 100 µM
c1ccc2c(c1)nc1n2CCNC1	> 100 µM
O=C1C=C(N2CCCC2)C(=O)c2c(O)ccc(O)c21	> 10 µM
Fc1ccc(C2NC(=S)NC3=C2CCOc2c3ccc3ccccc23)cc1 (stereo not drawn)	> 100 µM
Cn1ccc2c(NCCN)c3c(c(NCCN)c21)C(=O)c1ccccc1C3=O	5.37 µM
O=C1CCCCCCCCCCC(=O)C2CCOCCOCCOCCC1Cc1cccc(n1)C2	> 100 µM
c1cc2c(cc1C(N1CCNCC1)N1CCNCC1)OCO2	> 100 µM
O=C(CNC(=O)OCc1ccccc1)Oc1ccccc1	> 100 µM
O=c1c(/C=C/c2c(O)ccc3ccccc23)nnc2sc(-c3cccc([N+](=O)[O-])c3)nn12	7.23 µM
NC(Cc1ccccc1)=NCC(=O)O	> 100 µM
NCCCN(CCCN)CCCNCc1c2ccccc2c(CNCCCN(CCCN)CCCN)c2ccccc12	38.6 µM
O=C(O)C(F)(F)C(F)(F)C(F)(F)C(F)(F)C(=O)O	> 100 µM
CC(=O)OC(CC(C)C)P1(=O)N(CC(C)(C)C)[C@@H]2CCCC[C@H]2N1CC(C)(C)C (stereo partly drawn)	23.1 µM
Cc1c(C#N)c2nnn(-c3ccc([N+](=O)[O-])cc3)c(=O)n2c1-c1ccccc1	10 µM
Cc1ccccc1C(=O)C#Cc1cn(C2CC(O)C(CO)O2)c(=O)[nH]c1=O (stereo not drawn)	> 100 µM
COc1ccc(OC)c(C(=O)/C=C/c2cc(O)c(O)cc2F)c1	1.59 µM
Cc1ccc(C2(N3CCCC3)OC(C)(C)c3cccc4cccc2c34)cc1 (stereo not drawn)	30.3 µM
CC1Cc2c(N)nc(NN)nc2NC1=O (stereo not drawn)	> 100 µM
